Please provide measured MBEC C. albicans for the entries that follow.
- Tested on: Candida albicans ATCC 10231
- Format: cell-based
- condition.parameters: ATCC 10231, 24 h
Where a SMILES comes first, the peptide text is derived from it. Bridges are numbered along the chain shown (N, C = ends). The star is where a group is joined. Palmitoyl = CCCCCCCCCCCCCCCC(=O)*
A bare number is not enough; add the unit after it.

CCCCCCCCCCCCCCCC(=O)N[C@H]1CSSC[C@@H](C(N)=O)NC(=O)[C@H](CCCCN)NC(=O)[C@H](CCCCN)NC(=O)[C@H](CCCNC(=N)N)NC(=O)[C@H](CCCCN)NC1=O [C4, C16-CKRKKC-NH2] (Palmitoyl-CKRKKC-NH2; disulfide 1-6): 32 µg/mL
CCCCCCCCCCCCCCCC(=O)N[C@@H](CCCCN)C(=O)N[C@@H](CCCCN)C(=O)N[C@@H](CCCCN)C(N)=O [L1, C16-KKK-NH2]: 256 µg/mL

The record that follows has no MBEC C. albicans shown yet.
(Q) Consider the molecule CCCCCCCCCCCCCCCC(=O)N[C@@H](CCCNC(=N)N)C(=O)N[C@@H](CCCCN)C(=O)N[C@@H](CCCCN)C(=O)N[C@@H](CCCCN)C(N)=O [L3, C16-RKKK-NH2] (Palmitoyl-RKKK-NH2) . State its measured MBEC C. albicans.
(A) 128 µg/mL

====

- Test system: Candida lipolytica PCM 2680-FY
- Assay type: cell-based
- condition.parameters: 24 h
- Excerpt: The Staphylococcus aureus ATCC 25923, Staphylococcus epidermidis ATCC 14990, Escherichia coli ATCC 25922, Pseudomonas aeruginosa ATCC 9027, Candida albicans ATCC 10231, Candida glabrata ATCC 15126, Candida lipolytica PCM 2680-FY, and Candida tropicalis PCM 2709-FY strains were acquired from the Polish Collection of Microorganisms (PCM, Polish Academy of Sciences, Wrocław, Poland) and from the American Type Culture Collection (ATCC). […]
Where a SMILES comes first, the peptide text is derived from it. The star is where a group is joined. Palmitoyl = CCCCCCCCCCCCCCCC(=O)*
Please provide measured MBIC C. lipolytica for the entries that follow.
A bare number is not enough; add the unit after it.

The examples below pair each entry with its known result.
CCCCCCCCCCCCCCCC(=O)N[C@@H](CCCCN)C(=O)N[C@@H](CCCCN)C(=O)N[C@@H](CCCCN)C(=O)N[C@@H](CCCCN)C(N)=O [L2, C16-KKKK-NH2] (Palmitoyl-KKKK-NH2): 32 µg/mL
CCCCCCCCCCCCCCCC(=O)N[C@@H](CCCCN)C(=O)N[C@@H](CCCCN)C(=O)N[C@@H](CCCCN)C(=O)N[C@@H](CCCNC(=N)N)C(N)=O [L6, C16-KKKR-NH2] (Palmitoyl-KKKR-NH2): 32 µg/mL

The record that follows has no MBIC C. lipolytica shown yet.
(Q) Consider the molecule CCCCCCCCCCCCCCCC(=O)N[C@@H](CCCCN)C(=O)N[C@@H](CCCCN)C(=O)N[C@@H](CCCNC(=N)N)C(=O)N[C@@H](CCCCN)C(N)=O [L5, C16-KKRK-NH2] (Palmitoyl-KKRK-NH2) . State its measured MBIC C. lipolytica.
(A) 32 µg/mL

====

- Tested on: Candida glabrata ATCC 15126
- Type: cell-based
- condition.parameters: ATCC 15126, 24 h
Where a SMILES comes first, the peptide text is derived from it. Bridges are numbered along the chain shown (N, C = ends). The star is where a group is joined. Palmitoyl = CCCCCCCCCCCCCCCC(=O)*
Rule for this label: Met means MIC C. glabrata is less than 30 µg/mL; Not met means MIC C. glabrata is at least 30 µg/mL.

Use these answered entries as a reference point.
CCCCCCCCCCCCCCCC(=O)N[C@@H](CCCCN)C(=O)N[C@@H](CCCCN)C(=O)N[C@@H](CCCCN)C(N)=O: Not met
CCCCCCCCCCCCCCCC(=O)N[C@H]1CSSC[C@@H](C(N)=O)NC(=O)[C@H](CCCCN)NC(=O)[C@H](CCCCN)NC(=O)[C@H](CCCCN)NC(=O)[C@H](CCCNC(=N)N)NC1=O [C3, C16-CRKKKC-NH2] (Palmitoyl-CRKKKC-NH2; disulfide 1-6): Met
CCCCCCCCCCCCCCCC(=O)N[C@H]1CSSC[C@@H](C(N)=O)NC(=O)[C@H](CCCCN)NC(=O)[C@H](CCCCN)NC(=O)[C@H](CCCCN)NC1=O [C1, C16-CKKKC-NH2] (Palmitoyl-CKKKC-NH2; disulfide 1-5): Met
CCCCCCCCCCCCCCCC(=O)N[C@H]1CSSC[C@@H](C(N)=O)NC(=O)[C@H](CCCCN)NC(=O)[C@H](CCCNC(=N)N)NC(=O)[C@H](CCCCN)NC(=O)[C@H](CCCCN)NC1=O [C5, C16-CKKRKC-NH2] (Palmitoyl-CKKRKC-NH2; disulfide 1-6): Met
CCCCCCCCCCCCCCCC(=O)N[C@@H](CCCCN)C(=O)N[C@@H](CCCCN)C(=O)N[C@@H](CCCNC(=N)N)C(=O)N[C@@H](CCCCN)C(N)=O [L5, C16-KKRK-NH2] (Palmitoyl-KKRK-NH2): Not met

Please examine the following record next.
(Q) Does the reported MIC C. glabrata of CCCCCCCCCCCCCCCC(=O)N[C@H]1CSSC[C@@H](C(N)=O)NC(=O)[C@H](CCCCN)NC(=O)[C@H](CCCCN)NC(=O)[C@H](CCCNC(=N)N)NC(=O)[C@H](CCCCN)NC1=O [C4, C16-CKRKKC-NH2] (Palmitoyl-CKRKKC-NH2; disulfide 1-6) stay below 30 µg/mL?
(A) Met
